# system: synthetic Aβ protofibrils (Aβ1-42-derived protofibrils) (UniProt P05067 672-713)
# Sequence (P05067 672-713): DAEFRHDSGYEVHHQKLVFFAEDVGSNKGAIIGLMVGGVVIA
# procedureText: Octet BLI (Protein G sensor); PF 3.67 nM
pKd: −log10 of the molar value.
reportedEndpoint: pKd

binder: B73 (hybridoma-purified mAb) (antibody, V domains shown) VH: QLQLQMSGPGLVKPSETLSLTCTVSGGSISSSSYYWGWIRQSPGKGLEWIGSIYYSGRTYYNPSLKSRVTISVDTSKNQFSLKLSSVTAADTAMYYCARRSSGRPYYWGQGTLVTVSS VL: QAVVTQESALTTSPGGTVILTCRSSTGAVTTSNYANWVQEKPDHLFTGLIGETNNRAPGVPVRFSGSLIGDKAALTITGAQTEDDAMYFCALWYSTHWVFGGGTKLTVL
pKd: > 12.00

Consider B90 (hybridoma-purified mAb) (antibody, V domains shown) VH: QVQLVESGGGVVQPGRSLRLSCAASGFTFSSYGMHWVRQAPGKGLEWVAIIWYDGSKKYYADSVKGRFTISRDNSKNTLYLQMNSLRVEDTAVYYCARRGRVGATRDYYYYSMDVWGQGTTVTVSS VL: AIQMTQSPSSLSASVGDRVTITCRASQGIRNDLGWFHQKPGKAPKLLIYAASSLQSGVPSRFSGSGSGTDFTLTISSLQPEDFATYYCLQDYVYPWTFGQGTKVEIK . Its measured pKd is > 12.00

Consider B28 (hybridoma-purified mAb) (antibody, V domains shown) VH: QVQLVESGGGVVQPGRSVRLSCAATGFTFSSYGMHWVRQAPGKGLEWVAVIWFDGSNEYYADSVRGRFTISRDNSKNTLYLQMNSLRAEDTAVYYCARRGRVGVTRNYYYYNMDVWGQGTTVTVSS VL: AIQMTQSPSSLSASVGDRVTITCRASQGIRNDLGWFQQKPGKAPKLLIYPASSLQSGVPSRFSGSGSDTDFTLTISSLQPEDFATYYCLQDYNFPFTFGPGTKVDIK . Its measured pKd is > 12.00
